The values you see were collected from PubChem BioAssay (NCI).

Tested on: NCI-H322M lung
Assay: NCI-60 one-dose screen, 48 h (100 = growth as untreated, 0 = no growth, -100 = all killed)
Conditions: 10 µM unless noted
Protocol: Growth inhibition of the NCI-H322M human Non-Small Cell Lung tumor cell line is measured as a screen for anti-cancer activity. Cells are grown in 96 well plates and exposed to the test compound for 48 hours. Compounds are tested at a single concentration, which is 10^-5 M for most compounds. The reported endpoint is percent growth (GI% or GIPRCNT), where numbers from 0 - 100% represent growth inhibition, and numbers from -100% - 0 represent cell death. […]
This is part of a sample that, as a whole, favours compounds with a hit. Of some 83,000 tested, about 20% had one in any assay.
measure_name: growth (%)
// return numeric value only (unit: %, not printed)

Solved entries:
compound	recorded_value
CN(c1ccccc1)c1ccc2c(c1)OCCC21CC1Nc1cnccc1C(=O)O (stereo unspecified)	87.5
Cn1ccc2c(c1=O)C(=O)c1nccc3c1c-2nc1ccccc13	17.4
COc1ccc(-c2nc(SCCC(C)C)nc(N/N=C\c3cccc(Cl)c3)c2C#N)cc1	55.8
COc1ccc2c(c1)C(=O)/C(=C/c1ccc(OCC(=O)Nc3nccs3)cc1)O2	127

Ask: Bench note: what growth did CC1SC(c2ccc(OCc3ccccc3)cc2)N(NC(=O)C(O)(c2ccccc2)c2ccccc2)C1=O (stereo unspecified) show?
Reply: 49.1

Ask: Bench note: what growth did `Cc1occc1-c1n[nH]c(=S)n1N1C(=O)CSC1=S` show?
Reply: 99.4

Ask: Bench note: what growth did `COc1cc(-c2nn(-c3ccccc3)cc2-c2ccnc(NCCNS(=O)(=O)c3ccc(Cl)cc3)n2)ccc1Cl` show?
Reply: 68.8

Ask: Bench note: what growth did `CCN(CCNc1ccc(C)c2sc3ccccc3c(=O)c12)CC(C)(C)O` show?
Reply: 90.4

Ask: Bench note: what growth did `NS(=O)(=O)c1cnccc1Sc1ccncc1S(N)(=O)=O` show?
Reply: 124

Ask: Bench note: what growth did `c1ccc(-c2nc([P+](c3ccccc3)(c3ccccc3)c3ccccc3)c(N3CCOCC3)o2)cc1` show?
Reply: 21

Ask: Bench note: what growth did CCC(CO)Nc1nc2ccc(Cl)cc2c2ccccc12 (stereo unspecified) show?
Reply: 47.2

Ask: Bench note: what growth did CC1(C)CC(=O)C2=C(C1)N(c1ccc(OC(F)(F)F)cc1)C(N)=C(C#N)C2c1ccc(Cl)cc1 (stereo unspecified) show?
Reply: 91.3

Ask: Bench note: what growth did `COC1=C(OC)C(=O)C(OC)=C(OC)C1=O` show?
Reply: 95.7

Ask: Bench note: what growth did `Cc1ccc(NCCN(C)C)c2c(=O)c3ccccc3sc12` show?
Reply: 53.5

Ask: Bench note: what growth did `COc1cc(C(=O)/C=C/c2c(-c3ccc(F)cc3)nc3sc(C)cn23)cc(OC)c1OC` show?
Reply: 52

Ask: Bench note: what growth did `Cc1ccc(N2CCN(C(=S)c3cccs3)CC2)cc1` show?
Reply: 107

Ask: Bench note: what growth did CC(CN1CCCCC1)C(=O)c1ccccc1 (stereo unspecified) show?
Reply: 102

Ask: Bench note: what growth did CC(=O)C(C)Cc1cc2c(cc1C)C(C)(C)CCC2(C)C (stereo unspecified) show?
Reply: 97.8

Ask: Bench note: what growth did `Clc1cc(Cl)cc(Nc2ccc3cc(OCCCN4CCOCC4)ccc3n2)c1` show?
Reply: 59.4

Ask: Bench note: what growth did CCOc1ccccc1-n1c(CN2CCN(C(=O)COc3ccc(CNCCCCCCN4C5CCCC4CC(OC(=O)Nc4cc(C)ccc4OC)C5)cc3)CC2)nc2ccccc2c1=O (stereo unspecified) show?
Reply: -98.1

Ask: Bench note: what growth did `Nc1ccc2c(c1)c(N)nn2C(=O)Nc1ccc(Cc2ccccc2)cc1` show?
Reply: 81.2
